Where do the numbers come from? From ChEMBL document CHEMBL4257575.

system: L929; test: Cytotoxicity against mouse L929 cells assessed as reduction in cell survival after 5 days by MTS assay; format: cell-based; conditions: L929, 120 h
pIC50: −log10 of the molar value.
reported_endpoint: pIC50

| compound | tested_system | pIC50 |
| --- | --- | --- |
| Cc1ccc2oc(-c3ccc(OCCCCc4cn(CCOCCOCCOc5ccc(-c6cc(=O)c7cc(C)ccc7o6)cc5)nn4)cc3)cc(=O)c2c1 | L929 | < 4.30 |

Exercise: Could you share which pIC50 value was measured for Cc1ccc2oc(-c3ccc(OCCCCc4cn(CCOCCOc5ccc(-c6cc(=O)c7cc(F)ccc7o6)cc5)nn4)cc3)cc(=O)c2c1 ?
Solution: < 4.00

Exercise: Value lookup for pIC50; key = O=c1cc(-c2ccccc2)oc2cc(OCCOCc3cn(CCOCCOCCOc4ccc(-c5oc6ccccc6c(=O)c5OCc5ccccc5)cc4)nn3)ccc12
Solution: < 4.00

Exercise: Dear colleague, I am looking for the recorded pIC50 of the following compound: Cc1ccc2oc(-c3ccc(OCCOCCOCCOCCOCCOc4ccc(-c5cc(=O)c6cc(C)ccc6o5)cc4)cc3)cc(=O)c2c1
Solution: < 4.00

Exercise: Which pIC50 is listed for Cc1ccc2oc(-c3ccc(OCCCCc4cn(CCOCCOc5ccc6c(=O)cc(-c7ccccc7)oc6c5)nn4)cc3)cc(=O)c2c1 ?
Solution: < 4.00

---

target: Multidrug resistance-associated protein 1 (Homo sapiens); assay: Inhibition of MRP1 in human 2008/MRP1 cells assessed as potentiation of doxorubicin-induced cytotoxicity by measuring cell survival at 2 uM after 5 days by MTS assay relative to control; type: cell-based; conditions: 120 h
Sequence (P33527 whole entry): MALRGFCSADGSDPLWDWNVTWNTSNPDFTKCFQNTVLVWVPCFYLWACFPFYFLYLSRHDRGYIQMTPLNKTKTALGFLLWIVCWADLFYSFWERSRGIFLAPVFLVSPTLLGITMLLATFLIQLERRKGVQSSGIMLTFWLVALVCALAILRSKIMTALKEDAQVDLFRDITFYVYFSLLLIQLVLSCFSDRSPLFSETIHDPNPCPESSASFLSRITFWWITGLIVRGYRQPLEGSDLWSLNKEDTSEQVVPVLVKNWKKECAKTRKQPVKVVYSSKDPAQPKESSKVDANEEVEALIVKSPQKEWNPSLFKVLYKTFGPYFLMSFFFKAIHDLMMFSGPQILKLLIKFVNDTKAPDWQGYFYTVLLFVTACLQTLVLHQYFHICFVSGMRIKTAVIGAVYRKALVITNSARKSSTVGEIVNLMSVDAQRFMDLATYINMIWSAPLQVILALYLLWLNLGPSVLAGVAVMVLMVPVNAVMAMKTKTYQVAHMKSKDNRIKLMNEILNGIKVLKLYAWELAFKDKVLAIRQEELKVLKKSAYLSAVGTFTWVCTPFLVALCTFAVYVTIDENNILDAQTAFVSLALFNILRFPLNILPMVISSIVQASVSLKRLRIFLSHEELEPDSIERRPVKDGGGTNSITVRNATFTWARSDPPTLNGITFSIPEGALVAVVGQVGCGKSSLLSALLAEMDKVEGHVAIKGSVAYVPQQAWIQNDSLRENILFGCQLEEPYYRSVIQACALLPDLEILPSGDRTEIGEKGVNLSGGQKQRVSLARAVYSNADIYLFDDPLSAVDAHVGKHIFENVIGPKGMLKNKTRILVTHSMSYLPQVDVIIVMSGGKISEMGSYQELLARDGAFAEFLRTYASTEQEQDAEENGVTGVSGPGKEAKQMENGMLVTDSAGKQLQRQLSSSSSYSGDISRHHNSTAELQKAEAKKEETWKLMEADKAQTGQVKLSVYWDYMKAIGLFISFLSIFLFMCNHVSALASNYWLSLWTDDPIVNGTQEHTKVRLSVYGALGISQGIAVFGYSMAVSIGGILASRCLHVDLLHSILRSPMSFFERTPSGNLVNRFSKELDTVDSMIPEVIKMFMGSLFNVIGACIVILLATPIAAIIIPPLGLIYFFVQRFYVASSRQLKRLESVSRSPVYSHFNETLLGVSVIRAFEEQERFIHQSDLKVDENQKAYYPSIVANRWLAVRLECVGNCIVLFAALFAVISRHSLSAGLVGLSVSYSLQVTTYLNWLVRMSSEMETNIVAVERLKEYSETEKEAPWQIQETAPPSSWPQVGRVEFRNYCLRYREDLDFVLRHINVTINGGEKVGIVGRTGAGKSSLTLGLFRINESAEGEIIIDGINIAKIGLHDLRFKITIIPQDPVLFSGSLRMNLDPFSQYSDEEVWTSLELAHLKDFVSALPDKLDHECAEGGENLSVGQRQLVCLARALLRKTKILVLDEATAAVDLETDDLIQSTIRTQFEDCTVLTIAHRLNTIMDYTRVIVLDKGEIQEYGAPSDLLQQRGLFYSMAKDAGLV
Some molecules, each annotated with its measured Survival.
Return type: number; implicit unit %.

| compound | reported_endpoint | measurement |
| --- | --- | --- |
| O=c1c(OCc2ccccc2)c(-c2ccc(OCCOCCOCCn3cc(-c4cccc(-c5cn(CCOCCOCCOc6ccc(-c7oc8ccccc8c(=O)c7OCc7ccccc7)cc6)nn5)c4)nn3)cc2)oc2ccccc12 | Survival | 80 |
| Cc1ccc2oc(-c3ccc(OCCOCCOCCn4cc(CCCOc5ccc(-c6cc(=O)c7cc(F)ccc7o6)cc5)nn4)cc3)cc(=O)c2c1 | Survival | 82 |
| O=c1cc(-c2ccccc2)oc2cc(OCCCCc3cn(CCOCCOc4ccc(-c5cc(=O)c6cc(F)ccc6o5)cc4)nn3)ccc12 | Survival | 52 |

Exercise: Give the measured Survival of O=C(/C=C/c1ccc(OCCCCc2cn(CCOCCOCCOc3ccc(-c4oc5ccccc5c(=O)c4OCc4ccccc4)cc3)nn2)cc1)c1ccc(F)cc1O .
Solution: 68

Exercise: # lookup: Survival of O=c1[nH]c(-c2ccc(OCCCc3cn(CCOc4cccc5c(=O)cc(-c6ccccc6)oc45)nn3)cc2)nc2ccccc12
Solution: 67

Exercise: Return reported Survival; argument: COc1cccc(COc2c(-c3ccc(OCCOCCn4cc(COCCOc5ccc6c(=O)cc(-c7ccccc7)oc6c5)nn4)cc3)oc3ccccc3c2=O)c1
Solution: 47

Exercise: Any idea what its Survival is? The molecule is O=c1cc(-c2ccccc2)oc2cc(OCCCCc3cn(CCOCCOc4ccc5c(=O)cc(-c6ccccc6)oc5c4)nn3)ccc12
Solution: 53

Exercise: Entry COc1cccc(COc2c(-c3ccc(OCCCCc4cn(CCOCCOCCOc5ccc6c(=O)cc(-c7ccccc7)oc6c5)nn4)cc3)oc3ccccc3c2=O)c1 has what Survival?
Solution: 78

Exercise: What value of Survival has been reported for the following molecule? COCOc1cc(OCc2ccccc2)c2c(=O)cc(-c3ccc(OCCCc4cn(CCOc5cccc6c(=O)cc(-c7ccccc7)oc56)nn4)cc3)oc2c1
Solution: 81

Exercise: I would be grateful if you could share the reported Survival for COCOc1cc(OCc2ccccc2)c2c(=O)cc(-c3ccc(OCCCc4cn(CCOCCOCCOc5ccc(-c6cc(=O)c7cc(F)ccc7o6)cc5)nn4)cc3)oc2c1 .
Solution: 58

Exercise: Could you share which Survival value was measured for COc1cccc(COc2c(-c3ccc(OCCOCCn4cc(CN(Cc5ccccc5)Cc5cn(CCOCCOc6ccc(-c7oc8ccccc8c(=O)c7OCc7cccc(OC)c7)cc6)nn5)nn4)cc3)oc3ccccc3c2=O)c1 ?
Solution: 80

Exercise: Need Survival of O=c1cc(-c2ccccc2)oc2cc(OCCCCc3cn(CCOCCOCCOc4ccc(-c5cc(=O)c6cc(F)ccc6o5)cc4)nn3)ccc12 , thanks.
Solution: 47

Exercise: What value of Survival has been reported for the following molecule? COCOc1cc(OCc2ccccc2)c2c(=O)cc(-c3ccc(OCCCc4cn(CCOCCOCCOc5ccc(-c6cc(=O)c7ccccc7o6)cc5)nn4)cc3)oc2c1
Solution: 66

Exercise: Give the measured Survival of C#Cc1ccc(C#C)cc1 .
Solution: 86
